src = PubChem BioAssay (NCI)

# Test system: RXF 393 renal
# EXPERIMENT_SUMMARY: NCI-60 one-dose screen, 48 h
# SETUP_CONDITIONS: 10 µM unless noted
This is part of a sample that, as a whole, favours compounds with a hit. Of some 83,000 tested, about 20% had one in any assay. Active and inactive are the calls of the source. The calls were made as follows: active = growth percent below 10; inactive = the rest.
Possible outcomes: active, inactive

COMPOUND	DISCRETE_LABEL
CC(=O)Nc1ccc(C=Nc2ccc3ccccc3c2)cc1	inactive
CC(=O)OC[C@]12CC[C@@H]([C@@H](C)C(N)=O)[C@@H]1[C@H]1CC[C@@H]3[C@@]4(C)CC[C@H](OC(C)=O)C(C)(C)[C@@H]4CC[C@@]3(C)[C@]1(C)CC2	active
CC(C)c1ccc(C(=O)Nc2sc3c(c2C#N)CCC(=O)C3)cc1	active
O=C(NCCO)c1cccnc1	inactive
COc1ccc(CC(C#N)c2ccc(Cl)cc2)cc1 (stereo unspecified)	inactive
O=C1CN(Cc2ccc(C(=O)NO)cc2)C(=O)[C@@H](Cc2ccccc2)N1	inactive
Cc1ccc2c(n1)C(=O)C(Cl)=C(Nc1ccc(N3CCN(C)CC3)cc1)C2=O	inactive
O=C1/C(=C\c2cn(CC(O)CN3CCCCC3)c3ccccc23)c2ccccc2N1c1c(Cl)cccc1Cl (stereo unspecified)	active
O=C(CSc1nccc(Nc2ccc(S(=O)(=O)Nc3ccccn3)cc2)n1)c1ccc(Cl)cc1	inactive
NC(=O)c1c(NC(=O)COC(=O)Cc2ccccc2F)sc2c1CCC2	inactive
CCn1cc(-c2[nH]c(=S)ncc2-c2ccc(Cl)cc2)c(-c2ccc(Br)cc2)n1	inactive
